Give INHIBITION for every item shown.
system: Plasmodium berghei; experiment: Screen against P. berghei liver stage (PbLuc), transformed with Luciferase, at 2uM; type: functional, HepG2; details: tested at 2 uM
The campaign covered roughly 68,000 compounds. About 2,700 (4%) showed an effect of 50% or more. Only a selection was taken, and strong results are over-represented in it overall.
Answers are plain numbers, in %.

Sample records with INHIBITION:
| SAMPLE SMILES | EXPERIMENTAL TARGET | INHIBITION / % |
| --- | --- | --- |
| CC(=O)c1c(C)nn(CC(=O)Nc2ccc(F)cc2)c1C | Plasmodium berghei | -16.43 |
| Cc1cc(NC(=O)Cn2nc(C)c(C#N)c2N)ccc1Br | Plasmodium berghei | 55.86 |
| CC(C)NC(=O)[C@@]12CCO[C@@H]1CCN(Cc1ccco1)C2 | Plasmodium berghei | 16.63 |
| CC(C)N(CCC#N)C(=O)c1cnc(-c2ccc3c(c2)OCO3)s1 | Plasmodium berghei | 37.87 |
| CCn1cc(NC(=O)Nc2ccc3c(c2)OCCO3)cn1 | Plasmodium berghei | -27.62 |

We next turn to a different compound, shown below.
Lab request: please report INHIBITION under test system Plasmodium berghei for Cc1nn(CC(=O)Nc2cccc(F)c2)c(N)c1C#N
-33.61
